- assay notes: Total clearance in Sprague-Dawley rat at 0.5 mg/kg, iv or 1 mg/kg, po administered through cassette dosing
- Assay type: ADME, organism-based
- run conditions: in vivo
The entries below are paired with their reported clearance.
property label: clearance

mol | property label | measurement
O=C(C[C@]1(O)CC[C@H](Cc2ccccc2)CC1)Nc1ccc2[nH]c(=O)oc2c1 | clearance | 35.1 mL/min/kg
O=c1ccc(-c2cc(C[C@]3(O)CC[C@@H](Cc4ccc(Cl)cc4)CC3)no2)c[nH]1 | clearance | 16.8 mL/min/kg
O=C(Nc1ccc2[nH]c(=O)oc2c1)C(=O)N1CCC(Cc2ccc(F)cc2)CC1 | clearance | 37.1 mL/min/kg
O=c1ccc(-c2cc(C[C@]3(O)CC[C@H](Cc4ccc(Cl)cc4)CC3)no2)c[nH]1 | clearance | 6.6 mL/min/kg
O=C(C[C@]1(O)CC[C@@H](Cc2ccccc2)CC1)Nc1ccc2[nH]ncc2c1 | clearance | 21.5 mL/min/kg
O[C@]1(Cc2cc(-c3cn[nH]c3)on2)CC[C@H](Cc2ccc(OC(F)(F)F)cc2)CC1 | clearance | 6.2 mL/min/kg
O[C@]1(Cc2cc(-c3cn[nH]c3)on2)CC[C@H](Cc2ccccc2)CC1 | clearance | 56.5 mL/min/kg
O=C(C[C@]1(O)CC[C@H](Cc2ccc(F)cc2)CC1)Nc1ccc2[nH]c(=O)oc2c1 | clearance | 42.3 mL/min/kg
O=C1CCc2cc(NC(=O)C[C@]3(O)CC[C@@H](Cc4ccccc4)CC3)ccc2N1 | clearance | 24.4 mL/min/kg
